Measured values drawn from the supplement of paper PMC11061612 for this set.

System: ASH-3 (Thyroid Gland Carcinoma)
measurement.description: combination Emax (second highest fraction inhibited in the dose matrix, 72 h); higher = more inhibition; extreme values may be limits of the assay
Classify as follows. Reported combination Emax greater than or equal to 0.5: 1.0. Reported combination Emax below: 0.0.

>>> group_label("COc1cccc(OCCCN)c1-c1cc(Nc2cnc(C#N)cn2)n[nH]1 [Prexasertib] + Cc1cc2ncnn2cc1Nc1ncc2c(n1)n(C1CCOCC1)c(=O)n2C [AZD7648] (first compound max 1 µM, 7x7, partner max 10 µM)")
1.0
>>> group_label("CCN(CCO)CCCOc1ccc2c(Nc3cc(CC(=O)Nc4cccc(F)c4)[nH]n3)ncnc2c1 [AZD2811] + C=CCn1c(=O)c2cnc(Nc3ccc(N4CCN(C)CC4)cc3)nc2n1-c1cccc(C(C)(C)O)n1 [AZD1775] (first compound max 1 µM, partner max 1 µM)")
0.0
>>> group_label("C=CCn1c(=O)c2cnc(Nc3ccc(N4CCN(C)CC4)cc3)nc2n1-c1cccc(C(C)(C)O)n1 [AZD1775] + C1CN(CCC1(C(=O)N[C@@H](CCO)C2=CC=C(C=C2)Cl)N)C3=NC=NC4=C3C=CN4 [Capivasertib] (first compound max 3 µM, partner max 3 µM)")
1.0
>>> group_label("CC1(C)CCC(CN2CCN(c3ccc(C(=O)NS(=O)(=O)c4ccc(NCC5CCOCC5)c([N+](=O)[O-])c4)c(Oc4cnc5[nH]ccc5c4)c3)CC2)=C(c2ccc(Cl)cc2)C1 [Venetoclax] + C1CN(CCC1(C(=O)N[C@@H](CCO)C2=CC=C(C=C2)Cl)N)C3=NC=NC4=C3C=CN4 [Capivasertib] (first compound max 1 µM, 7x7, partner max 3 µM)")
0.0
>>> group_label("CC1(C)CCC(CN2CCN(c3ccc(C(=O)NS(=O)(=O)c4ccc(NCC5CCOCC5)c([N+](=O)[O-])c4)c(Oc4cnc5[nH]ccc5c4)c3)CC2)=C(c2ccc(Cl)cc2)C1 [Venetoclax] + Cc1cc2ncnn2cc1Nc1ncc2c(n1)n(C1CCOCC1)c(=O)n2C [AZD7648] (first compound max 1 µM, 7x7, partner max 10 µM)")
0.0
>>> group_label("COc1cccc2c1C(=O)c1c(O)c3c(c(O)c1C2=O)C[C@@](O)(C(=O)CO)C[C@@H]3O[C@H]1C[C@H](N)[C@H](O)[C@H](C)O1 [Doxorubicin] + Cc1cc2ncnn2cc1Nc1ncc2c(n1)n(C1CCOCC1)c(=O)n2C [AZD7648] (first compound max 1 µM, 7x7, partner max 10 µM)")
1.0

###

Test system: ASH-3 (Thyroid Gland Carcinoma)
measurement.description: combination Emax (second highest fraction inhibited in the dose matrix, 72 h); higher = more inhibition; extreme values may be limits of the assay
value.type: combination Emax

>>> result_number("COc1cccc(OCCCN)c1-c1cc(Nc2cnc(C#N)cn2)n[nH]1 [Prexasertib] + CN(C)CCCOc1ccc(-c2ccc3ncc4c(c3c2)n(C2CCOCC2)c(=O)n4C)cn1 [AZD0156] (first compound max 1 µM, 7x7, partner max 1 µM)")
0.565
>>> result_number("COc1nnc2ccc(N3CCC(c4ccc(OCCN5CCN(C)C(=O)[C@H]5C)cc4)CC3)nn12 [AZD5153] + CN(CC[C@H](CSC1=CC=CC=C1)NC2=C(C=C(C=C2)S(=O)(=O)NC(=O)C3=CC=C(C=C3)N4CCC(CC4)[C@H](C5=CC=CC=C5C6=CC=C(C=C6)Cl)O)S(=O)(=O)C(F)(F)F)CCO [AZD4320] (first compound max 1 µM, 7x7, partner max 1 µM)")
0.958
>>> result_number("CC(=O)c1c(C)c2cnc(Nc3ccc(N4CCNCC4)cn3)nc2n(C2CCCC2)c1=O [Palbociclib] + CC1(C)CCC(CN2CCN(c3ccc(C(=O)NS(=O)(=O)c4ccc(NCC5CCOCC5)c([N+](=O)[O-])c4)c(Oc4cnc5[nH]ccc5c4)c3)CC2)=C(c2ccc(Cl)cc2)C1 [Venetoclax] (first compound max 10 µM, 7x7, partner max 1 µM)")
0.283
>>> result_number("CCc1c2c(nc3ccc(O)cc13)-c1cc3c(c(=O)n1C2)COC(=O)[C@]3(O)CC [SN-38] + CN(C)CCCOc1ccc(-c2ccc3ncc4c(c3c2)n(C2CCOCC2)c(=O)n4C)cn1 [AZD0156] (first compound max 0.3 µM, 7x7, partner max 1 µM)")
0.844
>>> result_number("Cc1nc(Nc2ncc(C(=O)Nc3c(C)cccc3Cl)s2)cc(N2CCN(CCO)CC2)n1 [Dasatinib] + CC(=O)Nc1cccc(-n2c(=O)n(C3CC3)c(=O)c3c(Nc4ccc(I)cc4F)n(C)c(=O)c(C)c32)c1 [Trametinib] (first compound max 2 µM, 7x7, partner max 1 µM)")
0.855
>>> result_number("NC1(C(=O)N[C@@H](CCO)c2ccc(Cl)cc2)CCN(c2ncnc3[nH]ccc23)CC1 [Capivasertib] + C[C@@H]1COCCN1C2=NC(=NC(=C2)C3(CC3)[S@](=N)(=O)C)C4=C5C=CNC5=NC=C4 [AZD6738] (first compound max 10 µM, 7x7, partner max 10 µM)")
0.697
>>> result_number("Cc1cc2ncnn2cc1Nc1ncc2c(n1)n(C1CCOCC1)c(=O)n2C [AZD7648] + O=C(c1cc(Cc2n[nH]c(=O)c3ccccc23)ccc1F)N1CCN(C(=O)C2CC2)CC1 [Olaparib] (first compound max 10 µM, 7x7, partner max 10 µM)")
0.321
